All values here come from the RNAGym collection of RNA variant scans (doi:10.1093/molbev/msab373).

B1: Azoarcus group I ribozyme (parent)
chain: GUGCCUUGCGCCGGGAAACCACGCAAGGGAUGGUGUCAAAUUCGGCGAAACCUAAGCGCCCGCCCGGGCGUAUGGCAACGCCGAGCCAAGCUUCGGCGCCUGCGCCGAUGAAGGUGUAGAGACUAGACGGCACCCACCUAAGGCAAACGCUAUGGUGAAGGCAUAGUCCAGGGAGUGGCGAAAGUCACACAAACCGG

Variants of: B1
Experiment: reverse-splicing fitness (ratio to wild type); higher = more active; in vitro selection; Mg2+ level not given
Endpoint Label: reverse-splicing fitness

>>> test_result("C82G A111U A120C A145U C169G")
0.00981
>>> test_result("C82A A120G A145G C150G C169U U176C")
0.0123
>>> test_result("C82A A111C A120C A145C C150U C169G U176A")
0.0269
>>> test_result("C82A A111G A120U A145G C150A U176G")
0.00419
>>> test_result("C82A A111C A145G C169U U176C")
0.0149
>>> test_result("C82G A111C A145G C150A C169A")
0.00903
>>> test_result("A111G C150A C169G")
0.0174
>>> test_result("C82U A111C A120U C169U U176G")
0.00178
>>> test_result("A120C A145U C150A C169A U176C")
0.00632
>>> test_result("C82G A111G A120C A145C C150U U176A")
0.0141
>>> test_result("C82A C150G")
0.0487
>>> test_result("A111G A120U A145U C150A C169G U176G")
0.00159
>>> test_result("C82U A111U A120G A145C C150G C169A")
0.00779
>>> test_result("C82G A111C A120G A145G C150U C169G U176C")
0.0175
>>> test_result("C82G A111G A120U A145G C150G C169A")
0.00921
>>> test_result("A111U A120C A145U C150G U176C")
0.0375
>>> test_result("C82U A111G A120U A145G C169U U176G")
0.00171
>>> test_result("C82A A111C A120C C150A U176A")
0.0118
>>> test_result("C82U C150G C169G U176G")
0.00464
>>> test_result("A111G A120G A145U C169A")
0.174
>>> test_result("C82U A111C A120G A145G U176C")
0.0199
>>> test_result("C82G A120G C150A C169U U176A")
0.0248
>>> test_result("C82G A111U A120U A145G C169A U176G")
0.00196
>>> test_result("A111C A120U A145U C150A C169A U176A")
0.00258
>>> test_result("C82U A111C A120G A145C C150A C169G")
0.00682
>>> test_result("C82A A111C A120G A145C C150A C169U U176C")
0.00893
>>> test_result("C82U A111U A120U C150A U176A")
0.00551
>>> test_result("A111G A145G C150G C169A U176A")
0.0122
>>> test_result("C82A A111G A120G A145U C150A C169U")
0.00754
>>> test_result("C82A A111C A145G C150G C169G U176G")
0.00568
>>> test_result("C82A A111U A120G C150G C169A U176A")
0.0106
>>> test_result("A111G A120G A145G C169A U176G")
0.00474
>>> test_result("C82U A111U A120G A145C C150U C169G U176G")
0.00484
>>> test_result("A120G A145U C150G C169A U176G")
0.00439
>>> test_result("A111C A120G A145C C150U C169A")
0.0284
>>> test_result("C82A A111G A145C C150A U176C")
0.0184
>>> test_result("C82A A111U A120G C150A C169G U176A")
0.0215
>>> test_result("C82G A120U A145C C169A U176A")
0.00185
